# TARGET DESC: human mGluR4 (Homo sapiens, UniProt Q14833)
# Sequence (Q14833 33-912): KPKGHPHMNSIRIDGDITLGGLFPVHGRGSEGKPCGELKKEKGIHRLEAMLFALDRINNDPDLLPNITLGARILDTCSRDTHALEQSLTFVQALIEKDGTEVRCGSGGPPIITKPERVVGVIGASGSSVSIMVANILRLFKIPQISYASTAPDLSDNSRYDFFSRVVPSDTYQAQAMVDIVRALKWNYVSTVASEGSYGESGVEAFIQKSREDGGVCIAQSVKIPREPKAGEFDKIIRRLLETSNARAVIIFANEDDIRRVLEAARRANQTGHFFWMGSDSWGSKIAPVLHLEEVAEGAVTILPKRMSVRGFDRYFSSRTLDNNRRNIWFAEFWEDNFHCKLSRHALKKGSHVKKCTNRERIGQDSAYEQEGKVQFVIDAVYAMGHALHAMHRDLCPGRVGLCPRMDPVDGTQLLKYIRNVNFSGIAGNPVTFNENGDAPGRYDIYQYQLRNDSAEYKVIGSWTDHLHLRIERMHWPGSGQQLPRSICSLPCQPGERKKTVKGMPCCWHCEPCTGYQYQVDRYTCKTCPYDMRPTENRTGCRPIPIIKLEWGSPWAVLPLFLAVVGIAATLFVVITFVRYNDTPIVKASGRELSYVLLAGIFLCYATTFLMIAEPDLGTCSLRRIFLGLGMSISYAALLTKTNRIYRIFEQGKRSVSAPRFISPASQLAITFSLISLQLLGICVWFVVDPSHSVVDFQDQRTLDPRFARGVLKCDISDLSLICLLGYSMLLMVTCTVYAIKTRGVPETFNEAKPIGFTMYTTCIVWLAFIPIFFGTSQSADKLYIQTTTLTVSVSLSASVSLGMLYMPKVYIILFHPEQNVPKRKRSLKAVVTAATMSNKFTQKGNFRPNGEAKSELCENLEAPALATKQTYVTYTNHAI
# ASSAY PROTOCOL: Fluorescent cell based Ca2+ mobilization assay (FLIPR) on HEK-293 cells expressing human mGluR4
# TEST CONTEXT: positive allosteric modulation, HEK-293 cells expressing hmGluR4, stimulated by EC25 glutamate; mean of at least three independent experiments in duplicate; read-out: Ca^2+ Flux* (mean EC50)
OUTCOME MEASURE: EC50

Sample records with EC50:
{"MOLECULE": "COCCN1CCc2sc(Nc3cccc(CO)n3)nc2-c2c[nH]nc21 [Compound 1-53]", "TARGET DESC": "human mGluR4 (Homo sapiens, UniProt Q14833)", "EC50": "1000 to 10000 nM"}
{"MOLECULE": "Fc1cnc(Nc2nc3c(s2)CCN(CC(F)(F)F)c2[nH]ncc2-3)nc1 [Compound 1-30]", "TARGET DESC": "human mGluR4 (Homo sapiens, UniProt Q14833)", "EC50": "100 to 1000 nM"}
{"MOLECULE": "Fc1cnc(Nc2nc3c(s2)CCN(CC2CCCO2)c2[nH]ncc2-3)nc1 (centres unmarked) [Compound 1-48]", "TARGET DESC": "human mGluR4 (Homo sapiens, UniProt Q14833)", "EC50": "< 100 nM"}
{"MOLECULE": "Fc1cccc(Nc2nc3c(s2)CCN(CC2CC2)c2n[nH]cc2-3)n1 [Compound 1-40]", "TARGET DESC": "human mGluR4 (Homo sapiens, UniProt Q14833)", "EC50": "100 to 1000 nM"}
{"MOLECULE": "CC(c1ccc(Cl)cn1)N1CCc2sc(Nc3ncc(F)cn3)nc2-c2cn[nH]c21 (centres unmarked) [Compound 1-81]", "TARGET DESC": "human mGluR4 (Homo sapiens, UniProt Q14833)", "EC50": "< 100 nM"}
{"MOLECULE": "Cc1ccnc(CN2CCc3nc(Nc4ncc(F)cn4)sc3-c3cn[nH]c32)c1 [Compound 1-63]", "TARGET DESC": "human mGluR4 (Homo sapiens, UniProt Q14833)", "EC50": "< 100 nM"}
{"MOLECULE": "COCCN1CCc2sc(Nc3ccncn3)nc2-c2c[nH]nc21 [Compound 1-55]", "TARGET DESC": "human mGluR4 (Homo sapiens, UniProt Q14833)", "EC50": "1000 to 10000 nM"}
{"MOLECULE": "Cc1cc(CN2CCc3sc(Nc4nccc(C)n4)nc3-c3c[nH]nc32)on1 [Compound 1-46]", "TARGET DESC": "human mGluR4 (Homo sapiens, UniProt Q14833)", "EC50": "< 100 nM"}

Fill blank: measured EC50 of the molecule Fc1cnc(Nc2nc3c(s2)CCN(CC2CCNCC2)c2[nH]ncc2-3)nc1 [Compound 1-78] is ____.
1000 to 10000 nM

Would you kindly repeat that for Cn1cnc(CN2CCc3sc(Nc4ncc(F)cn4)nc3-c3cn[nH]c32)c1 [Compound 1-80] ?
100 to 1000 nM

Would you kindly repeat that for CC(C)c1cc(CN2CCc3nc(Nc4ncc(F)cn4)sc3-c3c[nH]nc32)no1 [Compound 1-42] ?
< 100 nM

###

# TARGET DESC: UniProtKB Q14833
# ASSAY PROTOCOL: Fluorescent cell based Ca2+ mobilization assay (FLIPR) on HEK-293 cells expressing human mGluR4
# TEST CONTEXT: positive allosteric modulation, HEK-293 cells expressing hmGluR4, stimulated by EC25 glutamate; mean of at least three independent experiments in duplicate; read-out: Ca^2+ Flux* (mean EC50)
pEC50: −log10 of the molar value.
pEC50 listing for selected molecules.

Sample records with pEC50:
{"MOLECULE": "Cn1ncc(CN2CCc3sc(Nc4ncc(F)cn4)nc3-c3cn[nH]c32)n1", "TARGET DESC": "UniProtKB Q14833", "pEC50": "> 7.00"}
{"MOLECULE": "CNCCN1CCc2sc(Nc3ncc(F)cn3)nc2-c2c[nH]nc21", "TARGET DESC": "UniProtKB Q14833", "pEC50": "5.00 to 6.00"}
{"MOLECULE": "Cc1nc(Nc2nc3c(s2)CCN(C)c2n[nH]cc2-3)ncc1F", "TARGET DESC": "UniProtKB Q14833", "pEC50": "6.00 to 7.00"}
{"MOLECULE": "CN1CCc2sc(Nc3ncc(F)cn3)nc2-c2c[nH]nc21", "TARGET DESC": "UniProtKB Q14833", "pEC50": "6.00 to 7.00"}
{"MOLECULE": "Fc1cnc(Nc2nc3c(s2)CCN(Cc2ccncc2)c2n[nH]cc2-3)nc1", "TARGET DESC": "UniProtKB Q14833", "pEC50": "> 7.00"}

Fill blank: measured pEC50 of the molecule Fc1cnc(Nc2nc3c(s2)CCN(CC2CCCCC2)c2n[nH]cc2-3)nc1 is ____.
> 7.00

Would you kindly repeat that for COCCCN1CCc2sc(Nc3ncc(F)cn3)nc2-c2c[nH]nc21 ?
> 7.00

Would you kindly repeat that for COCCN1CCc2sc(Nc3ccc(F)cn3)nc2-c2c[nH]nc21 ?
6.00 to 7.00

Would you kindly repeat that for Fc1cnc(Nc2nc3c(s2)CCNc2n[nH]cc2-3)nc1 ?
> 7.00

Would you kindly repeat that for Fc1cnc(Nc2nc3c(s2)CCN(CCC(F)(F)F)c2n[nH]cc2-3)nc1 ?
6.00 to 7.00

Would you kindly repeat that for Fc1cnc(Nc2nc3c(s2)CCN(Cc2ccc(Cl)cn2)c2n[nH]cc2-3)nc1 ?
> 7.00

###

pEC50 listing for selected molecules.
# TARGET DESC: human mGluR4 (Homo sapiens, UniProt Q14833)
# ASSAY PROTOCOL: Fluorescent cell based Ca2+ mobilization assay (FLIPR) on HEK-293 cells expressing human mGluR4
# TEST CONTEXT: positive allosteric modulation, HEK-293 cells expressing hmGluR4, stimulated by EC25 glutamate; mean of at least three independent experiments in duplicate; read-out: Ca^2+ Flux* (mean EC50)
pEC50: −log10 of the molar value.

Fill blank: measured pEC50 of the molecule CC(C)N1CCc2sc(Nc3ncc(F)cn3)nc2-c2c[nH]nc21 [Compound 1-6] is ____.
> 7.00

Would you kindly repeat that for Fc1cnc(Nc2nc3c(s2)CCN(CC2CCCC2)c2n[nH]cc2-3)nc1 [Compound 1-36] ?
> 7.00

Would you kindly repeat that for CCN1CCc2sc(Nc3nccc(C)n3)nc2-c2c[nH]nc21 [Compound 1-3] ?
> 7.00

Would you kindly repeat that for COCCN1CCc2sc(Nc3cccc(CF)n3)nc2-c2cn[nH]c21 [Compound 1-83] ?
6.00 to 7.00

Would you kindly repeat that for Cc1ccnc(Nc2nc3c(s2)CCN(CC2CCCO2)c2n[nH]cc2-3)n1 (stereo not shown) [Compound 1-10] ?
> 7.00

Would you kindly repeat that for Fc1cnc(Nc2nc3c(s2)CCN(Cc2ncc(Cl)s2)c2[nH]ncc2-3)nc1 [Compound 1-79] ?
6.00 to 7.00

Would you kindly repeat that for Cc1ccnc(Nc2nc3c(s2)CCN(C)c2n[nH]cc2-3)n1 [Compound 1-1] ?
> 7.00

Would you kindly repeat that for COCCN1CC(C)c2sc(Nc3ncc(F)cn3)nc2-c2cn[nH]c21 (stereo not shown) [Compound 1-84] ?
6.00 to 7.00

Would you kindly repeat that for Fc1cnc(Nc2nc3c(s2)CCN(CC2CC2)c2n[nH]cc2-3)nc1 [Compound 1-4] ?
> 7.00

Would you kindly repeat that for Cc1ccnc(Nc2nc3c(s2)CCN(CC2CC2)c2n[nH]cc2-3)n1 [Compound 1-37] ?
> 7.00

Would you kindly repeat that for COCCN1CCc2sc(Nc3ncc(O)cn3)nc2-c2cn[nH]c21 [Compound 1-50] ?
> 7.00

Would you kindly repeat that for COCCN1CCc2sc(Nc3nccc(OC)n3)nc2-c2c[nH]nc21 [Compound 1-18] ?
> 7.00

Would you kindly repeat that for Fc1cnc(Nc2nc3c(s2)CCN(Cc2[nH]ncc2Br)c2n[nH]cc2-3)nc1 [Compound 1-57] ?
5.00 to 6.00
